Hey, just so you know, these numbers are from the array DNA melting data of Ke et al. (doi:10.1101/2024.01.08.574731).

- test_details: folding enthalpy; higher = less favourable; fluorescence melt of hairpins on a sequencing array, two-state fit
- condition_set: sodium 0.088 M
Threshold check on folding enthalpy: at or above -30 kcal/mol gives True, strictly below gives False.

>>> category_label("GCACTGCGAAAGCCGAGC ((.(.((....)).).))")
"True"
>>> category_label("GTTGTCCGAAAGGAAAC (((.(((....))))))")
"True"
>>> category_label("GCCATGCGAAAGCGCGGC (((..((....))..)))")
"True"
>>> category_label("GCGACAGGTCGC ((((....))))")
"True"
>>> category_label("GTGCAACGAAAGTTCAC (((.(((....))))))")
"True"
>>> category_label("GGGAAGAAATTCCC (((((....)))))")
"True"
>>> category_label("GCAACTCGAAAGAGTGC (((.(((....))))))")
"False"
>>> category_label("GATGTGGGAAACCACATC (((((((....)))))))")
"False"
>>> category_label("GATCCCCGAAGGGATC ((((((....))))))")
"True"
>>> category_label("GACGCAGCGAAAGCTGTC (((..(((....))))))")
"True"
>>> category_label("GGTTGTGGAAACACGACC (((.(((....))).)))")
"False"
>>> category_label("GCGACAGTCGC ((((...))))")
"True"
>>> category_label("GGCTCTTCGAAAGAAGCC (((..(((....))))))")
"True"
>>> category_label("GCAGTGCGAAAGCTCGGC ((.(.((....)).).))")
"True"
>>> category_label("GATCGGAAATCCGATC ((((((....))))))")
"False"
